test: yeast display, Sf9 membrane polyspecificity reagent, FACS + sequencing; frameworks hold sequencing errors
experimental.endpoint: polyreactivity (PSR sort gate)

QVQLVDSRGCLVQAGGSLRLSFAASGSIFGYYSMVWYIQAPGKESELVAAISYSGSRTYYADSVKGRFTISRDNAKNTVYLQKNSLKPEDTAVYYCAVLRRDGFEYWGQGTQVTVSS	high polyreactivity
QVQIVESGGGLVQAGGSLRLSCAASGSIFDGNAMGWYRQAPGKERELVAAITWRGTRTYYADSVKGRFTISRDNAKNTVYLQMNSLKPEDTAVYYCAATSYSTYILGGTRRYDYWGQGTLVTVSS	high polyreactivity
QVQLVESGGGLVQAGGSLRLSCDASGRTFPEYGMGWYRQAPGKEREFVAAISTRGGSTYYANSVKGRFTISRDNAKNTVYLQMNSLKPEDTAVYYCAAKYPGGETYPFDYWGQGTQVTVSS	low polyreactivity
QVQLVESGGRLVQAGGSLRLSCAASGSTFRGYAMGWYIPAPGKEWELVATITSGGSTKYADSVKGRFTISRDNAKNTVYLQMNSLKPEDTAVYYCNAVPRSWSPYRHWFDYWGQGTQVTVSS	low polyreactivity

Now look at this entry.
Exercise: So what does the record say about polyreactivity (PSR sort gate) for QVHLGESGGGLVQAGGSLRLSCAASGSTFDRNVIGGYRQAPGKERELVAAISRVSSTNYADSVKGRFTISRDNAKNTVYLQMNSLKPEDTAVYYCAADRAGSIMNYWGQGTQVTVSS ?
Key: low polyreactivity

----------
assay: yeast display, Sf9 membrane polyspecificity reagent, FACS + sequencing; frameworks hold sequencing errors
experimental.endpoint: polyreactivity (PSR sort gate)

QVQLVESGGGLVQAGGSLRLSCAASGSIFHIYMGWYRQSPGKERELVASNSYRGGTTYYADSVKGRFTISRDNAKNTVYLQMNSLKPEDTAVYDCNVDRYFYHYGRYGHMDYWGQGTQVTVSS	low polyreactivity
QVQLVESGGGLVQAGGSLRLSCAASGIIFSSYAMGWYRQAPGKERELVAAISWSGGSTYYADSVKGRFTISRDNAKNTVYLQMNSLKPEDTAVYYCAAYPVWYYEYDYWGQGTQVTVSS	low polyreactivity
QVQLVESGGGLVQAGGSLRVSCAASGSTFQYYAMGWYRQAPGKERELVARISDSSANTYYADSVKGRFTISRDNAKNTVYLQMNSLKPEYTAVYYCATRRSHVLSEMDYWGQGTQVTVSS	low polyreactivity

----------
experiment: yeast display, Sf9 membrane polyspecificity reagent, FACS + sequencing; frameworks hold sequencing errors
experimental.endpoint: polyreactivity (PSR sort gate)

QVQLVESGGGLVQAGGSLRLSCAASGFTFYTYTMGWYRQAPGKERELVAVITSRGTRTYYADSVKGRFTISRDNAKNTVYLQMNSLKPEDTAVYYCNKGAGWSFGYWGQGTQVTVSS	high polyreactivity
QVQLVESGGGLVQAGGSLRLSCAASRSIFYSYALGWSRQAPGKEREWVADITITGSTYYADSVKGRFTISRDNAKNTVYLQMKSLKSEDTAVYFCNAVLAPGGYAYWGQGTQVTVSS	low polyreactivity
QVQLVESGGGLVQAGGSLRLSCAASGSTYFRNAMGWYRQAPGKERELVADISASGGSTYYADSVKGRFTISRDNAKNTVYLQMNSLKPEDTAVYYCNALYIYFYNYLTIVYWGQGTQVTVSS	low polyreactivity
QVQLVESGRGLVQAGGSLRLSCAASGSICGYYTMGWYRQAPGKERELVAAITSGGSTNYADSVKGRFTISRDNAKNTVYLQMNSLKPEDTAVYYCAKVSYYPWRYDYWGQGTQVTVSS	low polyreactivity
QVQLVESGGGLVQAGGSLRLSCAASGRIFTRNVMGWYRQAPGKERELVARINSGGRTYYADSVKGRFTISRDNAKNTVYLQMNSLKPEDTAVYYCAVPFYWYSPMDSWGQGTQVTVSS	high polyreactivity
LVQLVESGGGLVQAGGSLRLSSAASGLIFGYNAKGWYRQAPGKERELVAASSWSGGRTYYADSVKGRFTISRDNAKNTVYLHMNILKPEDTAVYYCAAVVRHSYFRDDHWGQGTQVTVSS	high polyreactivity
QVQLVESGGGLVQAGGSLRLSCAASGSIFNGYDMGWYRQAPGKERELVAAISLSGDSTYYADSVKGRFTISRDNAKNTVYLQMNSLKPEDTAVYYCAAADYFRSYWGQGTQVTVSS	low polyreactivity
QVQLVESGGGLVQAGGSLRLSCAASGLTFRYYTMGWYRQAPGKERELVASITSGGITYYADSVKGRFTISRDNAKNTVYLQMNSLKPEDTAVYYCAKGSYRTTYGALGVKFGYWGQGTKVTVSS	high polyreactivity

Exercise: Record request: polyreactivity (PSR sort gate) value, item QVQLVESGGGLVQAGGSLRLSCAASGSTFSHNAMGWYRQAPGKERELVAAISWSGGRTYADSVKGRFTISRDNAKNTVYLQMNSVKPDDTAVYYCNKVSYPSTSSSWFDYWGQGTQVTVSS
Key: low polyreactivity

Exercise: Please do the same for QVQLVESGGGLVQAGGTLRLSCAASGRTIKQNAMGWYRQAPGKERELVATIRNGGNTNYADSVKGRFTISRDNAKNNVYLQMNSLKPEDTAVYYCAAARSPYKYSYWGQGTQVTVSS as well.
Key: high polyreactivity

Exercise: // next record QVQLVDSGGGLVQAGGSLRIIRAASGSISGYNAMGWYRQAPGKERELVAAIYRSDGKDYADSVKGRFTISRDNAKNTVYLQMNSMIPEDTAVYYCIAVKWSVVGYVLGFYRDDYWGQGTQVTVSS
Key: low polyreactivity

Exercise: Another: QVQLVESGGGLVQAGGSLRLSCAASGRISVRIYAMGWYRQAPGKERELVAIISRSGGSTYYADSVKGRFTISRDNAKNTVYLQMNSLKPEDTEVYYCNARWSFSYTVWVDSYWCLDDYWGQGTQVTVSS
Key: high polyreactivity

Exercise: Likewise for QVQLVESGGGLVQAGGSLRLSCAATGRIFWVYAMGWYRQAPGKERELVAAINTSVGRTHYADSVKGRFTISRDNAKNTVYLQMNSLKPEDTAVYYCAADVKRYGWEYGYWGQGTQVTVSS ?
Key: low polyreactivity

Exercise: Consider next the sequence QVQLVESGGGLVQAGGSLRLSCAASGSIFKYYTMGWYRQAPGKEREFVAAITRSGGSTYYADSVKGRFTISRDNAKNTVYLQMNSLKPEDTAVYYCAARTIRDQTVRFGHWGQGTQVTVSS in the same way.
Key: high polyreactivity

----------
test: yeast display, Sf9 membrane polyspecificity reagent, FACS + sequencing; frameworks hold sequencing errors
experimental.endpoint: polyreactivity (PSR sort gate)

Check out these entries, answers already filled in.
QVQLVDSGGGLVQAGGSLRLSCAASGRTFWQYAMGWYRQAPGKERELVAAISRSGGSTYYADSVKGRFTISRDNAQNTVSLQMNSLKPEDTAVYYCAAYYLGYNYDYWGQGTQVTVSS	high polyreactivity
QGQLVESGGGLVQAGGSLRLSCAASGSIFYYNDMGWYRQAPGKEWELVATITNGGGTNYADSVKGRFTISRDNAKYTVYLQMNSLKPEDTAVYYCAADLWPTVTASGDLIVKFDYWGQGTQVTVSS	low polyreactivity
QVQLLESWGGLVHAGGSLRLSCAASGRIIYRYAMGWSRQAPGNERELVAGISNAGGSTYYADSVKGRFTISRDNAKNTVYLQMNSLKPEDTAVYYCATGPSYRYDKGGGRSRYYYWGQGTQVTVSS	high polyreactivity
QVQLVESGGGLVQAGGSLRLSCAASGSIFFWYAMGWYRQAPGKERELVAAISRGGRTTYADSVKGRFTISRDNAKNTVYLQMNSLKPEDTAVYYCAAYRYFTYFYYSDYPYNYWGQGTQVTVSS	high polyreactivity
QVQLVESGGGLVQAGGSLRLSCPASGSIFYSYAMGWYRQAPGKERELVAAISWDASTYYADSVKGRFTISRDNAKNTVYLQMNSLKPEYTAVYYCNAVYRVWYAEWSTVGSPHDYWGQGTQVTVSS	low polyreactivity

Exercise: polyreactivity (PSR sort gate) for QVQLVESGGGLVQAGGSLRLSCAASGYTFLPYAMGLYRQAPGKERELVADISSGGTTYYADSVKGRFTISRDNAKNTVYLQMNSLKPEDTAVYYCARASLPTYDWGQGTQVTVSS ?
Key: low polyreactivity

Exercise: # repeat for QVQLQESGGGLVQAGGSLRLSCAASCTISQEDWIGWYRQAPGKEREFVAAIGLGSNTNYADSLKGRFTISRDNAKNTVYLQMNSLKPEDTAVYYCAVSVWQYSDHVYRGQGTQVTVSS
Key: low polyreactivity

Exercise: Next entry: QVQLQESGGGLVQAGGSLRLSCAASGSISYPRTMGWYSQAPGQEREFVAGIGVGGNTYYAESVKGRFTISSDNAKNTVYLQMNSQKPEDTAVYYCNAEWYYPYYYSRMDYWGLGTQVTVSS
Key: low polyreactivity

----------
assay: yeast display, Sf9 membrane polyspecificity reagent, FACS + sequencing; frameworks hold sequencing errors
experimental.endpoint: polyreactivity (PSR sort gate)

Guide cases for polyreactivity (PSR sort gate), answers given:
QVQLVESGGGLVQAGGRLRLSCAASGRIFATNAMGWYRQAPGKERELVATITRSAGRTYYADSVKGRFTISRDNAKNTVYLQMNSLKPEDTAVYYCAADGYSTAVDDTVRYIVEYEFWGQGTQVTVSS	low polyreactivity
QVQLVESGGGLVQAGGSLRLSCAASGSIFTPYAMGWYRQAPAKERELVAANTSSGGSTNYPDSVKGRFTISRDKAKSTVYLQMNSLKPEDTAVYYCAADQDLGYPLFDYWGQRTQVTVSS	low polyreactivity
QVQLVESGGGLVQAGGSLRLSCAASGFIIPGYAMGWYRQAPGKERELVAAISSGTSTYYADSVKGRFTISRDNAKNTVYLQMNSLKPEDTAVYYCAAETWYRFGYWGQGTQVTVSS	low polyreactivity
QVQLVESGGGLVQAGGSLRLSCAASGLIFHHNAMGWYRQTPGKERELVAAISRSAGSTYYADSVKGRFTISRDNAKNTVYLQMKSLKPEDTAVYYCAKGPTPTSKYDTVGYGYWGQGTQVTVSS	low polyreactivity
QVQLVESGGGLVQAGGSLRLSCAASGRIFRAYAMGWYRQAPGKERELVAAITSGVSTNYADSVKGRFTISRDNAKNTVYLQMNSLKPEDTAVYYCAVLGKRNAYYYWGQGTQVTVSS	low polyreactivity

Alright, here's another sequence for you.
Exercise: Which measured polyreactivity (PSR sort gate) value corresponds to QVQLEESGGGLFQAGGSLRLSCAASVSSYRSYARGWYRTATGKERELVAAISVSGGSTYYADSVKGRFTISRDNAKNTVFLQMNSLKPEDTAVYYCAASYVPSYAPGRYYYWGQGTQVTVSS ?
Key: high polyreactivity
